Quick list: TGI per entry.
system: HOP-92 NSCLC; assay: NCI tumour cell line growth inhibition, 48 h

Past entries and their recorded results:
molecule	TGI
COc1ccc(OC)c(-c2nc3sccn3c2/C=C2/C(=O)Nc3ccc(Cl)cc32)c1	> 100 µM
N#Cc1c(Nc2ccc(F)cc2)[n+]([O-])c2ccc(Cl)cc2[n+]1[O-]	5.16 µM
OCC1OC(n2cnc3cccnc32)CC1O (centres undefined)	> 100 µM

Need TGI, item `COc1ccc(/C=C/c2cc(O)cc(OC)c2)cc1`
> 100 µM

###

system: 786-0 renal; assay: NCI tumour cell line growth inhibition, 48 h
measure-name: TGI (µM)
Respond numerically; units are µM and should not be typed.

Recorded results for 4 compounds are shown here.
compound	numeric-value
Cl.[Pt].[c-]1ccccc1-c1ccccn1.c1ccc(P(c2ccccc2)C([PH+](c2ccccc2)c2ccccc2)[PH+](c2ccccc2)c2ccccc2)cc1	14.4
COc1cc(-c2cc(-c3ccc(N(C)C)cc3)nc(N3CCOCC3)c2C#N)cc(OC)c1OC	13.4
COc1ccc(C2OC(=O)c3c2ccc2ccccc32)c(C)c1 (stereo not given)	18.1
CC(=O)O[C@H]1C#C/C=C\C#CC[C@@H]2C(=O)N(C(=O)OC(C)(C)C)[C@@H]12	51.7

Report TGI for `CC(=O)/C=C/C=C(\C)CC/C=C(\C)CC(C)C` please.
97.3

###

The reader will find reported log10 of TGI values listed item by item below.
system: RPMI-8226 leukemia; test: NCI tumour cell line growth inhibition, 48 h
// stored as log10 of TGI expressed in µM

compound	experimental-system	log10 of TGI
O=NC1c2cccc3cccc(c23)C1N=O (configuration not stated)	RPMI-8226 leukemia	1.60
O=C(NCc1cccnc1)/C(=C\c1ccc(Br)cc1)S(=O)(=O)c1ccccc1	RPMI-8226 leukemia	0.39
O=C1/C(=C/c2ccccc2)CCc2ccc(Cl)nc21	RPMI-8226 leukemia	0.90
C/C(=C/CO[Si](C)(C)C(C)(C)C)C(=O)N(C)c1ccccc1I	RPMI-8226 leukemia	1.89
O=C(CC(=O)N1N=C(c2ccccc2)C(N=Nc2ccc(C(=O)O)cc2)C1=O)Nc1ccc(F)cc1 (configuration not stated)	RPMI-8226 leukemia	2.00
CCOC(=O)C(C)(C)Oc1ccc2c(=O)cc(-c3ccccc3)oc2c1	RPMI-8226 leukemia	1.58
COc1ccc(C2OC(=O)c3c2ccc2ccccc32)c(C)c1 (configuration not stated)	RPMI-8226 leukemia	1.78
COc1ccc(/C=C/c2cc(O)cc(OC)c2)cc1	RPMI-8226 leukemia	1.90
CS(=O)(=O)OCCN1CCC2(CC1)SSC1(CCN(CCOS(C)(=O)=O)CC1)S2	RPMI-8226 leukemia	1.47
CCCCCCCCCCCCn1c(C)nc2ccccc21	RPMI-8226 leukemia	1.01

// next item, log10 of TGI requested
Give recorded log10 of TGI with RPMI-8226 leukemia for the following compound: `O=C(O)/C=C(/CC(=O)O)C(=O)O`
1.57

###

system: NCI-H23 lung; assay: NCI tumour cell line growth inhibition, 48 h; in the data active means GI50 below about 0.43 µM; inactive means the rest
Lab note: assign the record to one of active, inactive

Check out these entries, answers already filled in.
molecule	assigned-label
Cn1nc(C(F)(F)F)c(-c2ccc(Cl)c(C(F)(F)F)c2)c1-c1ccc(OCc2ccc(Cl)cc2)cc1O	inactive
COc1ccc(-c2nn(-c3cccc(Cl)c3)cc2C=C(C#N)C#N)cc1	inactive

Hi, do you know how `Nc1ncnc2c1c(C(F)(F)F)cn2[C@@H]1O[C@H](CO)[C@@H](O)[C@H]1O` came out in this test?
active

Please do the same for C#CCN1C(=O)/C(=c2\sc3n(c2=O)C2C(NN=3)N(CC)C(=O)N2CC)c2ccccc21 (stereo unspecified) as well.
inactive

Would you kindly repeat that for `O=C(/C=C/c1ccc(C(F)(F)F)cc1)c1ccc(Nc2nc(NCCO)nc(NCCO)n2)cc1` ?
inactive

Same for `COc1ccc(-c2oc(=O)ccc2C#Cc2cc(OC)c(OC)c(OC)c2)cc1O`
inactive

Thanks! And NC(=O)CCC(NC(=O)OCc1ccccc1)C(=O)OCC(=O)c1ccccc1 (stereo unspecified) ?
inactive

Likewise for `C=C(CN1CCN(c2ccccc2OC)CC1)c1ccc(C(=O)Nc2ccccc2N)cc1` ?
inactive

Can you check `CN(C)CCCNc1nn2c(=O)c3ccccc3nc2c2ccccc12` next?
inactive

Repeat for the following molecule: `COc1ccc(C(=O)c2cc(OC)c(OC)c(OC)c2)cc1OC(C)=O`
active

# repeat for `CCCCCCCCCCCCn1c(C)nc2ccccc21`
inactive
